Value source: PubChem BioAssay (NCI)

tested on: HS 578T breast; experiment: NCI-60 one-dose screen, 48 h; details: 10 µM unless noted
The panel holds about 83,000 compounds, 20% with a hit somewhere; the sample as a whole holds those more often. Active and inactive are the calls of the source. Rule for the calls: active = growth percent below 10; inactive = the rest.
Outcome codes: YES for active, NO for inactive

1. O=C(NNc1nc2cc(F)c(F)cc2n2cccc12)c1ncccn1 ... NO
2. COc1ccc([C@H]2[C@H](O)C(=O)N2c2cc(OC)c(OC)c(OC)c2)cc1O ... YES
3. Nc1n[nH]c2cccc(C#Cc3cccc(NC(=O)c4cccc(OC(F)(F)F)c4)c3)c12 ... YES
4. CC1(COc2ccc3ncc(C#Cc4cncc(C(=O)Nc5cc(C(C)(C)C)on5)c4)n3n2)COC1 ... NO
5. CN1CCN(Cc2ccc(NC(=O)c3cncc(C#Cc4cnc5ccc(NC6CCOCC6)nn45)c3)cc2C(F)(F)F)CC1 ... YES
6. CCN(CC)CCN1C(=O)c2c(c3c4cccnc4[nH]c3c3ccc4ccccc4c23)C1=O ... NO
7. COc1ccc(-c2oc3cc(O)cc(O)c3c(=O)c2OC)cc1O ... NO
8. Cc1nn(-c2ccccc2)c2nc(CCl)[nH]c(=O)c12 ... NO
9. O=c1oc2ccc(-c3ccc(F)cc3F)cc2c(=O)n1-c1ccc(F)c(F)c1 ... YES
10. O=C(NCCCCCCNC(=O)c1c2c(nc3ccccc13)-c1cccnc1SC2)c1c2c(nc3ccccc13)-c1cccnc1SC2 ... NO
11. CS(=O)(=O)c1nccc(-c2c(-c3ccc(F)c(OCc4ccccc4)c3)nc3sccn23)n1 ... NO
12. COc1ccc(N)cc1C(=O)Nc1cccc(-c2cc(=O)c3c(OC)c(OC)c(OC)cc3o2)c1 ... NO
13. COc1ccc([C@H]2c3[nH]c4ccccc4c3C[C@@H]3C(=O)N(C4CCN(Cc5ccccc5)CC4)CC(=O)N23)c(OC)c1 ... NO
14. CCCC(=O)NC(c1cccnc1)c1cc(C(C)=O)c2cccnc2c1O (stereo not drawn) ... NO
15. Cc1cc(O)c(=O)cc2c1C[C@H]1CC(C)(C)/C=C/C[C@]3(C)Oc4cc(=O)c(O)cc(C)c4C[C@H]3C[C@H](O)[C@@]1(C)O2 ... NO
16. IP(CCCSc1n(Cc2ccc3ccccc3c2)c(-c2ccccc2)c(-c2ccccc2)[n+]1Cc1ccc2ccccc2c1)(c1ccccc1)(c1ccccc1)c1ccccc1 ... NO
17. O=C1Nc2cc(OC(F)(F)F)ccc2Oc2ccc(-c3ccnc(N4CCNCC4)c3)cc21 ... YES
18. COCCC[C@H]1O[C@@](O)([C@H](C)[C@@H]2CC(OC)C(O)/C=C(C)/C=C(C)/C=C(\C)C(OC3O[C@@H](C)[C@H](O)C(O)[C@@H]3O)C(C)/C=C(C)/C=C(OC)/C=C(\C)C(=O)O2)C(OC)C(O)[C@]1(C)O[C@H]1C[C@@H](O)[C@H](O[C@H]2C[C@](C)(O)[C@H](O)C(C)O2)C(C)O1 (stereo partly drawn) ... NO
19. COC(=O)c1c(C(=O)OC)c2n(CC(=O)Nc3cccc4cccnc34)c3ccccc3n2c1C(=O)c1ccc(C)cc1 ... NO
20. COc1cc(C(=O)C[n+]2ccc3ccccc3c2)cc(OC)c1OC ... NO
21. Cc1cc(-c2ccc3nc(N)sc3c2)nc2ccc3[nH]ncc3c12 ... YES
22. Cc1occc1-c1nc2s/c(=C\c3cn(-c4ccccc4)nc3-c3ccccc3)c(=O)n2n1 ... NO
23. C[C@@H]1C[C@H]2C(=O)OCC(NC(=O)[C@H](Cc3cc(F)cc(F)c3)NC(=O)Nc3ccc(Cl)cc3F)C(=O)N3CCC[C@H]3C(=O)N3CCCC[C@H]3C(=O)N[C@@H](C)C(=O)N2C1 (stereo partly drawn) ... NO
24. O=C(/C=C/c1cccc(O)c1)c1ccc(O)cc1 ... NO
25. CCC(=O)Nc1ccc(-c2nc(-c3cccc(O)c3)c(-c3ccnc(Br)c3)[nH]2)cc1 ... NO
26. CC(C)=CCC[C@](C)(O)[C@H]1CC[C@]2(C)[C@@H]1CC[C@@H]1[C@@]3(C)CCC(NC(=O)c4ccccc4C(=O)O)C(C)(C)[C@@H]3CC[C@]12C (stereo partly drawn) ... NO
27. COc1cc(/C=C2\SC(=O)NC2=O)ccc1OCC(=O)Nc1ccc(C(=O)/C=C/c2cc3ccccc3nc2Cl)cc1 ... NO
28. N#C/C(=C\c1ccc(N2CCCCC2)cc1)C(=O)Nc1sc2c(c1C#N)CCC2 ... NO
29. CC(C)(C)CC(C)(C)n1nnnc1C(Nc1ccccc1)c1cc2cccc3ccc4cccc1c4c32 (stereo not drawn) ... NO
30. CN1CCN(c2ccc(C(=O)/C=C/c3ccc(Cl)c(C(F)(F)F)c3)cc2)CC1 ... NO
31. CC(C)=CCc1c(O)c(CC=C(C)C)c2c(c1O)C(=O)C1=C[C@@H]3C[C@H]4C(C)(C)O[C@@](C/C=C(\C)C(=O)O)(C3=O)[C@@]14O2 ... NO
32. COc1ccc(-c2cc(-c3ccc(Cl)cc3)nc3nc(N)nn23)cc1 ... NO
33. COc1cc(-c2nc(SCc3ccc(C)cc3)[nH]c(=O)c2C#N)ccc1OCc1ccccc1 ... NO

* * *

tested on: MDA-MB-231 breast; test: NCI-60 one-dose screen, 48 h (100 = growth as untreated, 0 = no growth, -100 = all killed); conditions: 10 µM unless noted
Compounds without any hit were thinned out: in the full panel of roughly 83,000, 20% have a hit.
growth strictly less than 90% = Satisfied. Otherwise Not satisfied.

1) O=C(Nc1ccc(Cl)cc1)Nc1nc2ccc([N+](=O)[O-])cc2s1 ... Satisfied
2) CCOC(=O)c1ccc(N/C=C/C(=O)c2ccccc2)cc1 ... Not satisfied
3) COc1ccc(Cn2cc3c(c2-c2cc(OC)c(OC)c(OC)c2)CCCc2cnoc2-3)cc1 ... Satisfied
4) CS(=O)(=O)c1ccc2c(c1)c1c(n2C(=O)c2ccc(Cl)cc2)CCCC1 ... Satisfied
5) C/C(=C(/c1ccc(O)cc1)c1ccc(OCCN2CCCCCC2)cc1)c1ccccc1 ... Satisfied
6) O=c1[nH]c2cc(Cl)ccc2n1C1CCN(c2ccc3nnc(Cl)n3n2)CC1 ... Not satisfied
7) COc1cc(/C=N/n2cnc3oc(-c4ccccc4)cc3c2=N)cc(CN2CCN(C)CC2)c1O ... Satisfied
8) CS(=O)(=O)c1ccc(-c2nn(-c3ccccc3)cc2/C=N/NC(=O)c2ccncc2)cc1 ... Not satisfied
9) CCOP(=O)(OCC)OC[C@]12CCC(C)(C)C[C@H]1C1=CC[C@@H]3[C@@]4(C)C/C(=C\c5cccnc5)[C@H](OP(=O)(OCC)OCC)C(C)(C)[C@@H]4CC[C@@]3(C)[C@]1(C)CC2 ... Satisfied
10) Cc1cn(-c2cc(NC(=O)c3cncc(C#Cc4cnc5ccc(O[C@H]6CCOC6)nn45)c3)cc(C(F)(F)F)c2)cn1 ... Satisfied
11) CCOC(=O)/C(F)=C/C1CC1CCc1cccc(C(F)(F)F)c1 (centres undefined) ... Not satisfied
12) CC(C)(C)OC(=O)N1CCN(S(=O)(=O)/N=C2\NC(=O)NC2=C(Cl)Cl)CC1 ... Satisfied
13) COc1cc(/C=C/C(=O)c2ccc(NC(=O)CSc3nnc(-c4ccc5nc(-c6ccccc6)[nH]c5c4)o3)cc2)cc(OC)c1OC ... Not satisfied
14) COc1ccc(NC2=C(Cl)C(=O)C(C)=C(C)C2=O)cc1 ... Satisfied
15) CN(C)CCn1c2ccc(N)cc2c2nc3ccccc3nc21 ... Satisfied
16) COc1ccc(C2CC(c3ccc(Nc4nc(NCCO)nc(Nc5ccc(Cl)cc5)n4)cc3)=Nc3c(N)nc(N)nc3N2)cc1 (centres undefined) ... Satisfied

* * *

System: M14 melanoma
Test: NCI-60 one-dose screen, 48 h
Conditions: 10 µM unless noted
Procedure: Growth inhibition of the M14 human tumor cell line is measured as a screen for anti-cancer activity. Cells are grown in 96 well plates and exposed to the test compound for 48 hours. Compounds are tested at a single concentration, which is 10^-5 M for most compounds. The reported endpoint is percent growth (GI% or GIPRCNT), where numbers from 0 - 100% represent growth inhibition, and numbers from -100% - 0 represent cell death. For example, a value of 40 represents 60% growth inhibition. […]
The panel holds about 83,000 compounds, 20% with a hit somewhere; the sample as a whole holds those more often. The source made the active and inactive calls. How the source made its calls: active means growth percent below 10; inactive means the rest.
Possible outcomes: 1.0 (active), 0.0 (inactive)

1) COc1cc2oc(-c3cccc(NC(=O)c4cc(NC(=O)[C@H](C)NC(=O)OC(C)(C)C)ccc4C)c3)cc(=O)c2c(OC)c1OC ... 0.0
2) CN(C)C(=O)c1ccccc1-n1cnc2ccccc2c1=O ... 0.0
3) Cc1ccccc1/C=C/c1nn2c(-c3ccoc3C)nnc2s1 ... 0.0
4) CCCCCCCCNC(=O)c1ccc(Cn2c(CCCC)nc3c(N)nc4ccccc4c32)cc1 ... 1.0
5) CNC(=O)c1cc(Oc2ccc3nc(NC(=O)c4cccc(C(F)(F)F)c4)sc3c2)ccn1 ... 0.0
6) O=S(=O)(Nc1cc(Cl)c(F)c(Cl)c1)c1ccc(-c2cnc(C3CC3)o2)cc1 ... 0.0
7) CCOc1ccc2nc(NC(=O)Nc3ccccc3C)sc2c1 ... 0.0
8) NC(=O)c1c(NC(=O)c2cccc(OC(F)(F)F)c2)sc2c1CCC(=O)C2 ... 0.0
9) Oc1ccc(CSc2nnc(-c3ccc(Oc4ccccc4)cc3)n2-c2ccccc2)c2cccnc12 ... 1.0
10) COc1cc(/C=N/Nc2ccnc3cc(Cl)ccc23)cc(OC)c1O ... 1.0
